# Procedure Summary: Pharmacokinetic experiments in rats
# Format: in vivo
# Recorded Conditions: Sprague-Dawley, rat, plasma, iv, 10 mg/kg
Measure: clearance (mL/min/kg)
One number for each entry, in mL/min/kg.

For the compound shown here, CCc1occc(=O)c1OC(=O)c1ccc(O)c(OC)c1 [SP‐8008] , give the reported clearance. 51.7

* * *

# Procedure Summary: Pharmacokinetic experiments in rats
# Format: in vivo
# Recorded Conditions: Sprague-Dawley, rat, plasma, po, 25 mg/kg
Measure: half-life (min)
Answers are plain numbers, in min.

For the compound shown here, `CCc1occc(=O)c1OC(=O)c1ccc(O)c(OC)c1` , give the reported half-life. 216

* * *

# Procedure Summary: Pharmacokinetic experiments in rats
# Assay type: in vivo
# Recorded Conditions: Sprague-Dawley, rat, plasma, po, 25 mg/kg, tmax, SD rats, p.o. 25 mg·kg^−1
Measure: Tmax

// lookup Tmax for `CCc1occc(=O)c1OC(=O)c1ccc(O)c(OC)c1` ~7 min

* * *

# Procedure Summary: Pharmacokinetic experiments in rats
# Format: in vivo
# Recorded Conditions: Sprague-Dawley, rat, plasma, po, 25 mg/kg
Measure: Cmax
Value and unit, in that order.

Find the recorded Cmax belonging to `CCc1occc(=O)c1OC(=O)c1ccc(O)c(OC)c1` and report it. 2370 ng/mL

* * *

# Procedure Summary: Pharmacokinetic experiments in rats
# Format: in vivo
# Recorded Conditions: Sprague-Dawley, rat, plasma, oral, 25 mg·kg^−1
Measure: bioavailability (%)
Answers are plain numbers, in %.

Fill blank: measured bioavailability of the compound CCc1occc(=O)c1OC(=O)c1ccc(O)c(OC)c1 [SP‐8008] is ____. 55.3

* * *

# Procedure Summary: Pharmacokinetic experiments in rats
# Type: in vivo
# Recorded Conditions: Sprague-Dawley, rat, plasma, iv, 10 mg/kg
Measure: half-life

# lookup: half-life of `CCc1occc(=O)c1OC(=O)c1ccc(O)c(OC)c1` 2.4 h

* * *

# Procedure Summary: Pharmacokinetic experiments in rats
# Assay type: in vivo
# Recorded Conditions: Sprague-Dawley, rat, plasma, iv, 10 mg/kg
Measure: AUC(0-inf)
The reply should consist of the numeric value with the unit placed after it.

# lookup: AUC(0-inf) of `CCc1occc(=O)c1OC(=O)c1ccc(O)c(OC)c1` 3250 ng·h/mL

* * *

# Test system: human platelets (PRP)
# Procedure Summary: Agonist-induced platelet aggregation in human PRP
# Format: cell-based
# Recorded Conditions: Homo sapiens, Platelet, read-out: IC50 (μM), platelet activator ADP
Measure: IC50

What is its IC50 for human platelets (PRP)? Entry: `CCc1occc(=O)c1OC(=O)c1ccc(O)c(OC)c1` > 250 µM
